System: WPMY1-TUBA1B-RELA
Experiment: lowest phenotypically active concentration; higher = less potent
Conditions: treatment time: 24 h
outcome.measure: lowest phenotypically active concentration (µM)
Number only, in µM; omit the unit.

1) COc1cc(C(=O)N2CCC(N3CCN(C)CC3)CC2)ccc1Nc1ncc2c(n1)N(C)c1ccccc1C(=O)N2C ... 1
2) O=C(CCCCCCC(=O)Nc1cccnc1)NO [Pyroxamide] ... 3
3) CC(C)C(=O)Nc1ncc(-c2cc(C(F)F)nn2-c2c(Cl)cccc2Cl)s1 ... 3

## Task lowest phenotypically active concentration for `CC(C)n1c(/C=C/[C@@H](O)C[C@@H](O)CC(=O)O)c(-c2ccc(F)cc2)c2ccccc21` ?
## Result 3

## Task lowest phenotypically active concentration for `COc1cc2c(Nc3ccc(Br)cc3F)ncnc2cc1OCC1CCN(C)CC1` ?
## Result 3

## Task lowest phenotypically active concentration for CC(C)n1c(/C=C/[C@@H](O)C[C@@H](O)CC(=O)O)c(-c2ccc(F)cc2)c2ccccc21.CC(C)n1c(/C=C/[C@H](O)C[C@H](O)CC(=O)O)c(-c2ccc(F)cc2)c2ccccc21 [Fluvastatin sodium] ?
## Result 1

## Task lowest phenotypically active concentration for `CN(C)CCCNc1c2c(=O)n(C)c(=O)nc-2n(C)c2ccccc12` ?
## Result 3

## Task lowest phenotypically active concentration for `Cc1cc(F)c(Nc2ncnc3cc(OCc4ccccc4)ccc23)cc1O` ?
## Result 9

###

Listed compounds paired with reported phenotypically active
Test system: A549-TP53BP1-CLTA
Experiment: phenotypically active (imaging signature differs from DMSO and reproducible) at any of 0.3-9 uM (binary (1 = active, 0 = inactive)); higher = active
Details: treatment time: 24 h
Counter-ions that a name gives are not always drawn.
A bare number is all that is needed in reply.

Examples with their reported phenotypically active follow.
1) COc1cc(OC)c2cc(-c3ccncc3)cnc2c1 [DMPQ dihydrochloride] ... 1
2) Nn1nnc2ccccc21 ... 0
3) Cc1cc(Nc2cc(C)c(C#N)c(NC(C)CCCC(C)(C)O)n2)n[nH]1 (stereo not drawn) [TC-A 2317 hydrochloride] ... 1
4) COc1ccc([C@@H]2CC(=O)c3c(O)cc(O)cc3O2)cc1O ... 0
5) CNNCc1ccc(C(=O)NC(C)C)cc1 ... 0

## Task Provide the documented phenotypically active with A549-TP53BP1-CLTA as the system for `COC(=O)c1ccc(N2CCN(C)CC2)c(NC(=O)c2cccc(OC)c2)c1`
## Result 0

## Task Provide the documented phenotypically active with A549-TP53BP1-CLTA as the system for `Nc1ccc(-c2cccc3c(=O)cc(N4CCOCC4)oc23)cc1`
## Result 1

## Task Provide the documented phenotypically active with A549-TP53BP1-CLTA as the system for `COc1cc(-c2cn(C)c(=O)c3cnccc23)c(OC)cc1CN(C)C`
## Result 1

## Task Provide the documented phenotypically active with A549-TP53BP1-CLTA as the system for `O=C(Nc1cccnc1)c1cc(-c2ccnc(F)c2)ccc1OCc1ccccc1`
## Result 0

## Task Provide the documented phenotypically active with A549-TP53BP1-CLTA as the system for `C[C@]12CC[C@@H]3c4ccc(O)cc4CC[C@H]3[C@@H]1CCC2=O`
## Result 0

## Task Provide the documented phenotypically active with A549-TP53BP1-CLTA as the system for COc1cc2c(cc1-c1c(C)noc1C)ncc1[nH]c(=O)n([C@H](C)c3ccccn3)c12 [I-BET 151 dihydrochloride]
## Result 1

## Task Provide the documented phenotypically active with A549-TP53BP1-CLTA as the system for `C/C=C(/C(=C/C)c1ccc(O)cc1)c1ccc(O)cc1`
## Result 0

## Task Provide the documented phenotypically active with A549-TP53BP1-CLTA as the system for O=C1CCC[C@@H]2[C@H]3CCC[N+]4([O-])CCC[C@@H](CN12)[C@@H]34 (stereo partly drawn)
## Result 0

## Task Provide the documented phenotypically active with A549-TP53BP1-CLTA as the system for `COc1cc2c(cc1OC)CC(=O)N(CCCN(C)C[C@H]1Cc3cc(OC)c(OC)cc31)CC2`
## Result 0

## Task Provide the documented phenotypically active with A549-TP53BP1-CLTA as the system for `O=C(O)[C@]1(O)C[C@H](O)[C@@H](O)[C@@H](O)C1`
## Result 0

## Task Provide the documented phenotypically active with A549-TP53BP1-CLTA as the system for `O=C(O)COc1ccc(Br)cc1/C=C1\SC(=S)N(Cc2cccnc2)C1=O`
## Result 0

## Task Provide the documented phenotypically active with A549-TP53BP1-CLTA as the system for `Cc1ccc(/C(=C/CN2CCCC2)c2cccc(/C=C/C(=O)O)n2)cc1`
## Result 1

## Task Provide the documented phenotypically active with A549-TP53BP1-CLTA as the system for `COc1ccc(CCN(C)CCCN2CCc3cc(OC)c(OC)cc3CC2=O)cc1OC`
## Result 0

## Task Provide the documented phenotypically active with A549-TP53BP1-CLTA as the system for `CC(C)n1c(/C=C/[C@@H](O)C[C@@H](O)CC(=O)O)c(-c2ccc(F)cc2)c2ccccc21`
## Result 1

## Task Provide the documented phenotypically active with A549-TP53BP1-CLTA as the system for `CC(=O)Nc1ccc(NC(=S)NC(=O)c2ccc(C(C)(C)C)cc2)cc1`
## Result 0

## Task Provide the documented phenotypically active with A549-TP53BP1-CLTA as the system for `Cn1cnc([N+](=O)[O-])c1Sc1ncnc2nc[nH]c12`
## Result 0

## Task Provide the documented phenotypically active with A549-TP53BP1-CLTA as the system for `CCCCCCCCCCCCCCCC[n+]1ccn(Cc2ccccc2)c1C`
## Result 1

## Task Provide the documented phenotypically active with A549-TP53BP1-CLTA as the system for `CCCCC(=O)N(Cc1ccc(-c2ccccc2-c2nnn[nH]2)cc1)[C@H](C(=O)O)C(C)C`
## Result 0

## Task Provide the documented phenotypically active with A549-TP53BP1-CLTA as the system for `CNc1nc(-c2ccc3c(N)n[nH]c3c2)cc(N2C[C@@H](C(=O)NC3CCCCC3)CC[C@H]2C)n1`
## Result 1

###

Listed molecules paired with reported lowest phenotypically active concentration
System: HepG2-GM130-SQSTM1
Test: lowest phenotypically active concentration; higher = less potent
Settings: treatment time: 24 h
Counter-ions that a name gives are not always drawn.
Number only, in µM; omit the unit.

Examples with their reported lowest phenotypically active concentration follow.
1. CN[C@H]1CC[C@@H](c2ccc(Cl)c(Cl)c2)c2ccccc21 [sertraline] ... 3
2. Cc1cc(Nc2ccc(NC(=O)c3ccc(Nc4ccnc5ccccc45)cc3)cc2)nc(N)n1 ... 1
3. C=C1CN(Cc2ccc(C(=O)Nc3ccccc3N)cc2)C(=O)c2ccccc21 ... 1
4. CC(C)(C)c1ccc(S(=O)(=O)/C=C/C#N)cc1 ... 9
5. Nc1nc(S)c2[nH]cnc2n1 [thioguanine] ... 1
6. CC1CNCCN1S(=O)(=O)c1cccc2cnccc12 (centres undefined) [H-7 dihydrochloride] ... 9
7. O=S(=O)(c1cccc2cnccc12)N1CCCNCC1 [fasudil] ... 3
8. C[C@H]1Oc2cc(cnc2N)-c2c(nn(C)c2C#N)CN(C)C(=O)c2ccc(F)cc21 ... 3

## Task lowest phenotypically active concentration for `NC1(C(=O)N[C@@H](CCO)c2ccc(Cl)cc2)CCN(c2ncnc3[nH]ccc23)CC1` ?
## Result 1

## Task lowest phenotypically active concentration for CN1CCN(C(=O)CN[C@H]2C[C@@H]2c2ccc(OCc3ccccc3)cc2)CC1 [RN 1 dihydrochloride] ?
## Result 3

## Task lowest phenotypically active concentration for `COc1ccccc1S(=O)(=O)Nc1ccc2c(c1)CN(C)C(=O)N2` ?
## Result 3

## Task lowest phenotypically active concentration for COCC(=O)O[C@]1(CCN(C)CCCc2nc3ccccc3[nH]2)CCc2cc(F)ccc2[C@@H]1C(C)C [mibefradil] ?
## Result 9

###

Test system: WPMY1-TP53BP1-CLTA
Assay: phenotypically active (imaging signature differs from DMSO and reproducible) at any of 0.3-9 uM (binary (1 = active, 0 = inactive)); higher = active
Conditions: treatment time: 24 h
Listed molecules paired with reported phenotypically active
A bare number is all that is needed in reply.

Examples with their reported phenotypically active follow.
1. Cc1c(-c2ccccc2)oc2c(C(=O)OCCN3CCCCC3)cccc2c1=O [flavoxate] ... 0
2. CC(C)(C)c1ccc2cc(C#N)c(C#N)cc2c1 ... 0
3. Cc1ccc(Nc2nccc(N(C)c3ccc4c(C)n(C)nc4c3)n2)cc1S(N)(=O)=O ... 0
4. O=c1cc(N2CCOCC2)oc2c(-c3cccc4c3sc3ccccc34)cccc12 ... 1
5. O=C(O)CCNC(=O)c1ccc(/N=N/c2ccc(O)c(C(=O)O)c2)cc1 [balsalazide] ... 0

## Task phenotypically active for `COc1ccc([C@@H]2Sc3ccccc3N(CCN(C)C)C(=O)[C@@H]2OC(C)=O)cc1` ?
## Result 0

## Task phenotypically active for `Cc1ccc(/C(=C/CN2CCCC2)c2cccc(/C=C/C(=O)O)n2)cc1` ?
## Result 1
